- Test system: IFN-γ production in allogeneic PBMC co-culture (MLR)
- experimental.details: IFN-γ production by allogeneic T cell activation in the mixed leukocyte response (MLR), ELISA
- Format: cell-based
- measurement.context: 120 h, 5 days, read-out: INF-γ IC50
# reported IC50; entries follow
measured.parameter: IC50 (nM)

{"columns": ["compound", "assayed.system", "reading"],
 "data": [
  ["C=C1/C(=C\\C=C2/CCC[C@]3(C)C(C(C)CCCC(C)(C)O)=CCC23)CC(OC(C)=O)C[C@@H]1OC(C)=O (stereo partly drawn) [(11)]", "IFN-γ production in allogeneic PBMC co-culture (MLR)", 0.036],
  ["C=C1/C(=C\\C=C2/CCC[C@]3(C)C(C(C)C/C=C/C(C)(C)O)=CCC23)CC(OC(C)=O)C[C@@H]1OC(C)=O (stereo partly drawn) [(9)]", "IFN-γ production in allogeneic PBMC co-culture (MLR)", 0.013],
  ["C=C1/C(=C\\C=C2/CCC[C@]3(C)[C@@H]([C@H](C)CCCC(C)(C)O)CC[C@@H]23)C[C@@H](O)C[C@@H]1O [1,25(OH)2D3, calcitriol, reference compound]", "IFN-γ production in allogeneic PBMC co-culture (MLR)", 0.022],
  ["C=C1/C(=C\\C=C2/CCC[C@]3(C)C(C(C)C/C=C/[C@@](C)(O)C(F)(F)F)=CCC23)CC(OC(C)=O)C[C@@H]1OC(C)=O (stereo partly drawn) [(16)]", "IFN-γ production in allogeneic PBMC co-culture (MLR)", 0.0513],
  ["C=C1/C(=C\\C=C2/CCC[C@@]3(C)C2CCC3C2(CCCC(C)(C)O)CC2)C[C@@H](OC(C)=O)C[C@@H]1OC(C)=O (stereo partly drawn) [Compound (35)]", "IFN-γ production in allogeneic PBMC co-culture (MLR)", 0.0027],
  ["CC(=O)OC1C/C(=C/C=C2\\CCC[C@@]3(C)C2CCC3C2(C/C=C\\C(O)(C(F)(F)F)C(F)(F)F)CC2)C[C@@H](OC(C)=O)C1 (stereo partly drawn) [(33)]", "IFN-γ production in allogeneic PBMC co-culture (MLR)", 0.099],
  ["CC(=O)OC1C/C(=C/C=C2\\CCC[C@]3(C)C(C(C)CC#CC(C)(C)O)=CCC23)C[C@@H](OC(C)=O)C1 (stereo partly drawn) [(20)]", "IFN-γ production in allogeneic PBMC co-culture (MLR)", 0.025],
  ["CC(=O)OC1C/C(=C/C=C2\\CCC[C@]3(C)C(C(C)CCCC(C)(C)O)=CCC23)C[C@@H](OC(C)=O)C1 (stereo partly drawn) [(18)]", "IFN-γ production in allogeneic PBMC co-culture (MLR)", 0.003],
  ["CC(=O)OC1C/C(=C/C=C2\\CCC[C@@]3(C)C2CCC3C2(CC#CC(C)(C)O)CC2)C[C@@H](OC(C)=O)C1 (stereo partly drawn) [(24)]", "IFN-γ production in allogeneic PBMC co-culture (MLR)", 0.802]
]}
